Field: IC50. Provide a value for each of the molecules that follow.
target: DLK (Homo sapiens); construct: 10 nM DLK, catalytic domain, Carna Biosiences; purchased Carna Biosciences ('Carna Biosiences' [sic]); test: DLK biochemical assay (TR-FRET, MKK7 phosphorylation); settings: DLK catalytic domain, MKK7 substrate, 60 μM ATP
Sequence (Q12852 125-366 limits assumed): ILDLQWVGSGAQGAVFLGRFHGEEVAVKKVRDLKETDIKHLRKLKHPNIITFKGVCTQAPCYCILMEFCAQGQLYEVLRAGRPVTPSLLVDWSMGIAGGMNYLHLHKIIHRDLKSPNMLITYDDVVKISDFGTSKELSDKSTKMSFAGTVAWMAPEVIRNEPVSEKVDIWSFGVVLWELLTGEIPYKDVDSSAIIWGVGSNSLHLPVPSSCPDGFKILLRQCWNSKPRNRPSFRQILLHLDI
Give the quantity in nM, number only.

State its IC50: CC[C@H](C)NC(=O)c1cc(-c2cnn(CC3CC3)c2)cn2nc(N)nc12
97

State its IC50: CC[C@H](C)NC(=O)c1cc(-c2cnn(C(c3ccc(C(F)F)nc3)C3CC3)c2)cc2nc(N)nn12 (single isomer, unassigned) [Example I-100]
2.8

State its IC50: CC[C@H](C)NC(=O)c1cc(-c2cnn(C(CC#N)C(F)(F)F)c2)cc2nc(N)nn12 (stereo partly drawn)
36

State its IC50: CC[C@H](C)NC(=O)c1cc(-c2cnn(C(c3ccnc(C(F)(F)F)c3)C(C)C)c2)cn2nc(N)nc12 (mixture of isomers)
2.9

State its IC50: CC[C@H](C)NC(=O)c1cc(-c2cnn(C(c3ccccc3)C3CCOCC3)c2)cc2nc(N)nn12 (mixture of isomers) [Example I-51]
1.8

State its IC50: CC[C@H](C)NC(=O)c1cc(-c2cnn([C@H](c3ccc(F)cc3)C(C)C)c2)cn2nc(N)nc12 (single isomer, unassigned)
1.3
